Source listed as PubChem BioAssay.

measured_on: Pantothenate synthetase (Mycobacterium tuberculosis (strain ATCC 25618 / H37Rv)) (UniProt P9WIL5)
Sequence (P9WIL5 whole entry, looked up): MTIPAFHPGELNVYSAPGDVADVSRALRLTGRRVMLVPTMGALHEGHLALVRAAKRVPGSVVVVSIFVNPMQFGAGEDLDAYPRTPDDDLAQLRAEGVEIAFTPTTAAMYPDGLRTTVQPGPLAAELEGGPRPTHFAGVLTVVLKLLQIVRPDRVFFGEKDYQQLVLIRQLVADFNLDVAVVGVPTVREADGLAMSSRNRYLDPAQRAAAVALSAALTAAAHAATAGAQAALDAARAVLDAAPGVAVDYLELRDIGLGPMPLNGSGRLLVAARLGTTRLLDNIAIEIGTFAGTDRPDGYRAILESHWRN
test_method_notes: Coupled enzyme confirmation of inhibitors against recombinant Mtb PanC (AID 375);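 also: 0% = full reaction with vehicle and 100% = no enzyme background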
stated_conditions: coupled enzyme assay; at 10 µM, stronger effect = higher value
Examples of molecules with documented inhibition follow.
Dear colleague, please return just the value in %, with no unit written.

Reported inhibition of O=C(C1CC1(c1ccccc1)c1ccccc1)N1CCOCC1 (centres undefined) : 0

More entries:
Recorded inhibition (molecule Cc1ccc(C(=O)CSc2nnc(-c3cccnc3)n2N)cc1 ): 5

Data point: Cc1ccc2oc(=O)c3cnn(CC(=O)N4CCCc5ccccc54)c3c2c1 ; inhibition = 1

What the record says about COc1ccc(C2CC(C(F)(F)F)n3ncc(C(=O)NCc4cccnc4)c3N2)cc1OC (centres undefined) : inhibition is 0

Per the records, this molecule ( CCOC(=O)c1cccc(NC(=O)CCn2nnc3ccccc32)c1 ) has inhibition equal to 0

Measured inhibition of COc1ccc(S(=O)(=O)NC2CCCCC2)c(C)c1C : 4

Input Cn1c(=O)c2c(nc(NCCCO)n2C/C=C/c2ccccc2)n(C)c1=O . Output inhibition: 4

Lab book: inhibition of CCCCn1c(SCc2cccnc2)nc2c1c(=O)n(C)c(=O)n2C noted as 0

---

Catalogue of molecules with associated inhibition
measured_on: Pantothenate synthetase (Mycobacterium tuberculosis (strain ATCC 25618 / H37Rv))
test_method_notes: Coupled enzyme confirmation of inhibitors against recombinant Mtb PanC (AID 375);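 also: 0% = full reaction with vehicle and 100% = no enzyme background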
stated_conditions: coupled enzyme assay; at 10 µM, stronger effect = higher value
Please respond with the number in % and leave the unit unwritten.

Before answering, review these 6 worked examples.
Record summary for NC(=O)C1CCN(CC(=O)N2c3ccccc3CCc3ccccc32)CC1 : reported inhibition = 0

Data point: COc1cccc(C(=O)OCn2nnc3ccccc3c2=O)c1OC ; inhibition = 0

Item: CCOC(=O)NC(=O)CSc1nnnn1-c1ccc(Cl)cc1 | inhibition: 0

The molecule listed as CCCN1Cc2cccc(C(=O)NC3CCCC3)c2C1=O has a reported inhibition of 0

Entry CC1CCCN(C(=O)CN2CCN(C(=O)c3ccco3)CC2)C1 (stereo unspecified) — recorded inhibition = 0

CCOC(=O)C1CCCN(C(=O)c2ccc(CS(=O)(=O)c3ccc(Br)cc3)o2)C1 (stereo unspecified) yielded inhibition of 4

Continuing:
The value of inhibition measured for the molecule CCOc1ccccc1C(=O)Nn1c(C2CCC2)nc2ccccc2c1=O turned out to be 0

Briefly, inhibition measured for COc1cc(NC(=O)c2ccco2)c(OC)cc1NC(=O)CCC(=O)Nc1cc(C)cc(C)c1 : 8

response.value for COc1cc(NS(=O)(=O)c2ccc(Br)s2)cc(OC)c1 (field: inhibition) = 0

Form: molecule = COc1ccc(C)cc1S(=O)(=O)N(C)CC(=O)Nc1ccc2c(c1)OCCO2 ; inhibition = 2

inhibition for C[C@H](CS)C(=O)N1CCC[C@H]1C(=O)O is 2

---

test_method_notes: H69AR cell proliferation blockers – human, duplicate replicates, primary screen (AID 580);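 also: 100% = mean luminescence of untreated wells and 0% = no signal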
stated_conditions: H69AR lung tumor cells viability, ATP luminescence, 72 h; at 10 µM; stronger effect = lower value
Each record here notes measured viability.
Give the number; % is assumed, so skip it.

Recorded viability, per entry:
viability in this record for CNP1(NC)=NC(C(F)(F)F)=NC(C(F)(F)F)=N1 : 98.1

The compound identified as COc1cc(/C=N/n2cnnc2)ccc1OC(=O)N(C)C registered its viability at 102

viability recorded for this compound, O=c1[nH]c(=O)n(CCc2ccccc2)c(O)c1C=NCCN1CCNCC1 , is 93

// field: viability; key: Cc1ccc(OCC(=O)NCCN2CCN(C(=O)COc3ccc(C)cc3)CC2)cc1 ; value = 95.2

Further cases:
// viability lookup, compound = Oc1ccc(C2NCc3ccccc3-n3cccc32)cc1Cl (stereo not given) , result: 83.8

---

test_method_notes: MRP1 drug-resistance reversers in H69AR cells – cell-based, doxorubicin co-treatment, pilot screen (AID 601)
stated_conditions: H69AR cells, CellTiter-Glo, 72 h; compound alone cytotoxicity; at 10 µM
Flag rule - viability less than 90% flags label 1; the remaining entries get label 0.

Ask: hey, is viability for Cc1ccc(-c2nc(CS(=O)CC(=O)N3CCC4(CC3)OCCO4)c(C)o2)cc1 (stereo not given) lower than 90% or not?
Result: label 1

Ask: Given CC12CCCCC1=[N+]([O-])CN2O (stereo not given) , is recorded viability strictly lower than 90%?
Result: label 0

Ask: Does the reported viability of Cc1nn(-c2ccccc2)c2c1CC1(C(=O)N(C)C(=O)N(C)C1=O)C1CCCCN21 (stereo not given) stay below 90%?
Result: label 1

Ask: Hello, I'm reviewing records and need to know if viability of COC(=O)c1ccccc1-n1c(C)nc2ccccc2c1=O is below 90%. Could you check?
Result: label 0

Ask: In the record for Cn1c(C(=O)N2CCC3(CC2)OCCO3)cc2c(=O)n(C)c3ccccc3c21 , is viability less than 90%?
Result: label 1

Okay, now this molecule:
Ask: Take the molecule c1ccc(C2CC3CC(c4ccco4)N2O3)cc1 (stereo not given) and say whether its viability is less than 90%.
Result: label 0

---

Each record here notes measured viability.
test_method_notes: MRP1 drug-resistance reversers in H69AR cells – cell-based, doxorubicin co-treatment, pilot screen (AID 601)
stated_conditions: H69AR cells, CellTiter-Glo, 72 h; compound alone cytotoxicity; at 10 µM
Give just the number in %; leave the unit off.

// solved cases for viability follow
Please fill in: viability reported for Cc1ccc(CS(=O)(=O)CCC(=O)N2CCC3(CC2)OCCO3)cc1 = 97.7

Reported viability ( O=P(OCC(F)(F)C(F)F)(N1CCCCC1)N1CCCCC1 ) = 117

So for C=C1CC[C@@]2(O)[C@H]3Cc4ccc(O)c5c4[C@@]2(CCN3CC2CC2)[C@H]1O5 , the logged viability turned out to be 110

Entry CCCCn1c(O)c(C(C)=Nc2cccc(C(=O)O)c2)c(=O)[nH]c1=O — recorded viability = 105

# viability of COc1ccccc1/C=C1/C(=N/O)C2CCN1CC2 = 104

Lab note: measured viability of C=CCN1C(=O)C2(C(C(=O)OCC)=C(N)Oc3c2c(=O)oc2ccccc32)c2ccccc21 (stereo unspecified) was 98.2

Continuing:
For reference, reported viability for CCNc1ccc(P(=S)(N(C)C)N(C)C)cc1 stands at 88.2

---

test_method_notes: MRP1 drug-resistance reversers in H69AR cells – cell-based, doxorubicin co-treatment, pilot screen (AID 601)
stated_conditions: H69AR cells + 2 uM doxorubicin, CellTiter-Glo, 72 h; at 10 µM; stronger effect = higher value
readout_name: differential viability (reversal) (%)
Output spec: scalar in %, unitless text.

Reference set, count: 5
Looking up O=C1CC(c2ccccc2)CC(O)=C1C=NCCN1CCN(C(=O)Cc2ccccc2)CC1 (stereo unspecified) , I see its differential viability (reversal) listed as -2.69

differential viability (reversal) reported for this molecule C=CCOC(=O)COc1cc(C)cc2oc(=O)c3c(c12)CCC3 : -2.28

Recorded result, Clc1ccc(CSC(Cn2ccnc2)c2ccc(Cl)cc2Cl)cc1 (stereo unspecified) , differential viability (reversal): -14.6

Memo: Cc1cccc(N2CCc3c2nc2ccccc2c3N)c1 , reported differential viability (reversal): -14.1

Please fill in: differential viability (reversal) reported for Cn1c(=O)cc(SCC(=O)N2CCC3(CC2)OCCO3)c2ccc(Cl)cc21 = 8.79

---
Form: molecule = CC(C)(C)OC(=O)c1c(N)n(Cc2ccco2)c2nc3ccccc3nc12 ; differential viability (reversal) = -9.48

# differential viability (reversal) (molecule: OCC12COC3c4ccccc4C(OC1)N32 (stereo unspecified) ) is 4.61

// COc1ccc(CN2CCN(C(=O)Cc3ccccc3)CC2)c(OC)c1 : differential viability (reversal) value = 9.87

---

Measured inhibition accompanies every entry in the list below.
test_method_notes: yeast transport mutant growth inhibition pilot in 384-well plates, post-Golgi transport modulator project (AID 636)
stated_conditions: absorbance 615 nm, about 18 h, stronger effect = higher value
Activity calls are given as the source filed them. Rule as the data show it: active = inhibition above about 31%; inactive = the rest.

Example compounds with recorded inhibition:
// recorded inhibition for CNCCc1c[nH]c2ccccc12 : -0.39% (inactive)

The reported inhibition of the compound O=C(CN1CCN(Cc2cccc(Cl)c2)C1=O)N1CCC2(CC1)OCCO2 was -3.12% (inactive)

# inhibition (compound: Cc1ccccc1-n1c(O)c(C=NCCN2CCOCC2)c(=O)[nH]c1=O ) is -5.87% (inactive)

inhibition for COc1ccc(OC)c(C2=NOC(C(=O)N3CCC4(CC3)OCCO4)C2)c1 (stereo unspecified) is -6.49% (inactive)

// sample COc1ccc(CCn2c(O)c(C=NCCCN(C)C)c(=O)[nH]c2=O)cc1OC , its inhibition was -4% (inactive)

Alright, here's another compound for you.
Record COc1ccccc1N1CCN(Cc2cccc(OC)c2O)CC1 . Reported inhibition: -5% (inactive)
